Target: T1, RBM5 RRM1 (human, UniProt P52756 94-184)
T1 sequence: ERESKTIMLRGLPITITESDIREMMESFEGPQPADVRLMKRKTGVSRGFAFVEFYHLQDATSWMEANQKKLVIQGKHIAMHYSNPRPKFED
Test: ITC; 20 mM MES pH 6.5, 100 mM NaCl, 2 mM 2-mercaptoethanol, 25 C; protein 10-30 uM in the cell; one-site fit
Conditions: tags: His-thioredoxin, TEV-cleaved (scar left out)
So I've got a bunch of binders here, and I need their pKd values.
Lab note: report pKd as minus log10 of the concentration in molar units, number only.

Kindly note the recorded pKd for UCUCUUCUC (ssRNA) [CU_9] , which is 4.71

Kindly note the recorded pKd for UGGCUCUUCUCU (ssRNA) [GGCU_12] , which is 5.73

Data origin: paper PMC10349855
